This collection of values is drawn from the supplement of paper PMC10567573.

B1: ZNF511 (parent)
chain: HLYPADFRFDKPKKSRSPASAEAP

- Variants of: B1
- assay.name: protein stability index of a GFP-peptide fusion (GPS, HEK-293T) (PSI 1-6); higher = more stable;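 further: lentivirally expressed fusions sorted by FACS into six bins by GFP to DsRed ratio, PSI derived from sequencing read proportions per bin multiplied by bin number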
- test.context: c terminus: a fixed tail appended
Record form. Attribute: protein stability index. Fill in for each entry.

Qu. Would you kindly share the measured protein stability index for HLYPADFRFDKVKKSRSPASAEAP ?
Ans. 2.8

Qu. Would you kindly share the measured protein stability index for HLYPADFRFDKPKKSRSPASAVAP ?
Ans. 2.7

Qu. Would you kindly share the measured protein stability index for HLYPADFRFDKPKKSRSPASAEFP ?
Ans. 2.76

Qu. Would you kindly share the measured protein stability index for HLYPAAFRFDKPKKSRSPASAEAP ?
Ans. 2.12

Qu. Would you kindly share the measured protein stability index for HLYPADFCFDKPKKSRSPASAEAP ?
Ans. 2.8

Qu. Would you kindly share the measured protein stability index for HLYPADFRFDAPKKSRSPASAEAP ?
Ans. 3.14

Qu. Would you kindly share the measured protein stability index for HLYPADFRFDKPKKSRFPASAEAP ?
Ans. 2.7

Qu. Would you kindly share the measured protein stability index for HLYPADFRFDTPKKSRSPASAEAP ?
Ans. 3.02

Qu. Would you kindly share the measured protein stability index for HLYPADFRFDVPKKSRSPASAEAP ?
Ans. 3.52

Qu. Would you kindly share the measured protein stability index for HLYPVDFRFDKPKKSRSPASAEAP ?
Ans. 3.6

Qu. Would you kindly share the measured protein stability index for HLYPADFRFDKPKKSRAPASAEAP ?
Ans. 2.61

Qu. Would you kindly share the measured protein stability index for HLYPADFSFDKPKKSRSPASAEAP ?
Ans. 2.05

Qu. Would you kindly share the measured protein stability index for HLYPADFRFDKPKKSRSPATAEAP ?
Ans. 3.07

Qu. Would you kindly share the measured protein stability index for HKYPADFRFDKPKKSRSPASAEAP ?
Ans. 4.6

Qu. Would you kindly share the measured protein stability index for HLYPADFRFDKPPKSRSPASAEAP ?
Ans. 3.64

Qu. Would you kindly share the measured protein stability index for HLYPADFRFDKPKKSRSSASAEAP ?
Ans. 2.97

Qu. Would you kindly share the measured protein stability index for HLYPADFRFDKPKKSRSPASAEAN ?
Ans. 3.09

Qu. Would you kindly share the measured protein stability index for HLYPADFRFDKPKKSRSPASAECP ?
Ans. 2.73

Qu. Would you kindly share the measured protein stability index for HWYPADFRFDKPKKSRSPASAEAP ?
Ans. 2.87

Qu. Would you kindly share the measured protein stability index for HQYPADFRFDKPKKSRSPASAEAP ?
Ans. 3.59

Qu. Would you kindly share the measured protein stability index for HLYPADFRFDKPKKSRSPASNEAP ?
Ans. 2.96

Qu. Would you kindly share the measured protein stability index for HLYPADFAFDKPKKSRSPASAEAP ?
Ans. 2.61
